// merged dataset of IC50 values, system = Insulin receptor (Homo sapiens), multiple refs
Your answer should be a plain number; it is taken to be in µM.

FC(F)(F)CNc1nc(Nc2ccc(N3CCOCC3)c(Cl)c2)nc2ccoc12 = 3.48
COc1cc(P(C)(C)=O)ccc1Nc1ncc(Cl)c(Nc2ccccc2OC)n1 = 0.0552
COc1cc(P(C)(C)=O)ccc1Nc1ncc(Cl)c(Nc2ccccc2S(C)(=O)=O)n1 = 0.0047

Request: Form: Entry = `CNC(=O)c1cccc(Nc2nc(Nc3ccc4c(c3)CCCC(=O)N4C)ncc2Cl)c1` | System = Insulin receptor (Homo sapiens) | IC50 = ____
Result: 0.247

====

Assay read-out pIC50 on Insulin receptor (Homo sapiens, UniProt P06213); records merged from the literature.
Please treat pIC50 as minus the base-10 logarithm of the molar concentration.

Request: Recorded pIC50 for `CN1CCN(c2ccc(C(=O)Nc3n[nH]c4ccc(Cc5cc(F)cc(F)c5)cc34)c(N)c2)CC1` , please?
Result: 5.89

Request: Give its pIC50 value. Item: `CNC(=O)CN1CCC(c2ccc(Nc3ncc4ccc(-c5ccccc5OC)n4n3)c(OC)c2)CC1`
Result: 6.79

Request: Which pIC50 reading was recorded for the compound `CN1CCN(c2ccc(Nc3ncc4ccc(-c5ccccc5NS(C)(=O)=O)n4n3)cc2)CC1` ?
Result: 5.73

Request: What measured pIC50 goes with `COc1c(Br)cc(/C=C2\SC(=O)NC2=O)cc1Br` ?
Result: 4.19

Request: Which pIC50 is reported for this compound? `COc1cc(N2CCC(N3CCN(C)CC3)CC2)ccc1Nc1ncc(Cl)c(Nc2ccccc2C(N)=O)n1`
Result: 8.47

Request: Please look up its pIC50: `COc1cc(N2CCC(N3CCN(C)CC3)CC2)c(F)cc1Nc1ncc(Cl)c(Nc2ccccc2P(C)(C)=O)n1`
Result: 5.93

Request: Return reported pIC50; argument: `CN(C(=O)c1ccccc1)c1ccc2c(c1)nc(NC(=O)c1ccoc1)n2CCC(N)=O`
Result: 6.49

Request: // lookup pIC50 for `COCC(COC)Nc1cc(N2CCN(C)CC2)ccc1C(=O)Nc1n[nH]c2ccc(Cc3cc(F)cc(F)c3)cc12`
Result: 5.78

Request: Fill in: pIC50 of `CN1CCN(c2ccc(C(=O)Nc3n[nH]c4ccc(Cc5cc(F)cc(F)c5)cc34)c(NCCF)c2)CC1` is ___
Result: 6.34

====

Compiled from multiple publications: log10 of IC50 readings for Insulin receptor (Homo sapiens, UniProt P06213).
Annotation: log10 of IC50, nM basis.

CONC(=O)c1cn(-c2ccc3c(c2)CCC3)c2nc(Nc3ccc(C4CCN(CC(=O)O)CC4)cc3)ncc2c1=O = 3.97
CCN1CCc2ccc(Nc3ncc(Cl)c(N[C@@H]4CCCC[C@H]4NC(C)=O)n3)cc2CC1 = 2.18
C=CC(=O)Nc1cc(Nc2ncc(Cl)c(-c3cnn4ccccc34)n2)c(OC)cc1N1CC[C@@H](N(C)C)C1 = 1.32
CN1CCN(c2ccc(C(=O)Nc3n[nH]c4ccc(Cc5cccc(F)c5)cc34)c(NC3CCOCC3)c2)CC1 = 2.63
CNc1nc(Nc2ccc(-c3nc4ccccc4s3)cc2)c2cc(OC)c(OC)cc2n1 = 2.80
COc1cccc(C(=O)c2sc(Nc3ccc(N4CCN(C(C)C)CC4)cc3)nc2N)c1 = 4.38
CN1CCC(Oc2ccc(C(=O)Nc3n[nH]c4ccc(Cc5cc(F)cc(F)c5)cc34)c(NC3CCOCC3)c2)CC1 = 2.29
COc1cc(P(C)(C)=O)ccc1Nc1ncc(Cl)c(Nc2ccccc2S(=O)(=O)C(C)C)n1 = 1.00

Now examine the next entry.
Request: Enter reported log10 of IC50 observed with Insulin receptor (Homo sapiens, UniProt P06213) for `COc1cc(N2CCOCC2)ccc1Nc1ncc(Cl)c(N[C@@H]2CCCC[C@H]2NS(C)(=O)=O)n1`
Result: 3.23
